Test system: 883617-216-R-J1-PDC complex spheroids, growth, % test/control
Test: Anticancer human tumor 883617-216-R-J1-PDC patient-derived bladder carcinoma cell line growth inhibition [AhR]
Conditions: second compound 0.316 µM; first compound 0.0316 µM; stronger effect = lower value
result_type: viability, T/C (%)
# number only, unit % dropped from output

Solved cases (2 shown):
CC1(C)CCC(CN2CCN(c3ccc(C(=O)NS(=O)(=O)c4ccc(NCC5CCOCC5)c([N+](=O)[O-])c4)c(Oc4cnc5[nH]ccc5c4)c3)CC2)=C(c2ccc(Cl)cc2)C1 + Cc1cncc(-c2nc(NCCc3c[nH]c4ccccc34)c3ncn(C(C)C)c3n2)c1: 97.3
COc1ccc([C@@H](O)c2cc(-c3ncnc4cc(N5CCOCC5)ccc34)c(F)cc2Cl)nn1 + Cc1ccccc1N=Nc1ccc(NC(=O)c2ccnn2C)c(C)c1: 83.7

q: Given the molecule COc1cc(C2c3cc4c(cc3C(OC3OC5COC(C)OC5C(O)C3O)C3COC(=O)C23)OCO4)cc(OC)c1O (stereo not drawn) + Cc1ccccc1N=Nc1ccc(NC(=O)c2ccnn2C)c(C)c1 , what is its reported viability, T/C?
a: 80.8

---

# viability, T/C per record follows
System: 883617-216-R-J1-PDC complex spheroids, growth, % test/control
Experiment: Anticancer human tumor 883617-216-R-J1-PDC cell line growth inhibition [AhR];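 also: exposure lasted 7 days after dosing on day 3 of spheroid growth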
Conditions: second compound 0.316 µM; first compound 0.3 µM; stronger effect = lower value
# number only, unit % dropped from output

Nc1ncn(C2CC(O)C(CO)S2)c(=O)n1 (stereo not drawn) + CC(CO)NC(=O)c1cc(-c2ccc(Cl)cc2)nn(-c2cnn(C)c2)c1=O: 49.2
CC(C)CC(NC(=O)C(Cc1ccccc1)NC(=O)c1cnccn1)B(O)O (stereo not drawn) + CC(CO)NC(=O)c1cc(-c2ccc(Cl)cc2)nn(-c2cnn(C)c2)c1=O: 2.44

// next entry
q: Given the compound CCN(c1cc(-c2ccc(CN3CCOCC3)cc2)cc(C(=O)NCc2c(C)cc(C)[nH]c2=O)c1C)C1CCOCC1 + Cc1ccccc1N=Nc1ccc(NC(=O)c2ccnn2C)c(C)c1 , what is its reported viability, T/C?
a: 85.3

---

System: 883617-216-R-J1-PDC complex spheroids, growth, % test/control
Test: Anticancer human tumor 883617-216-R-J1-PDC cell line growth inhibition [AhR];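 also: exposure lasted 7 days after dosing on day 3 of spheroid growth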
Settings: second compound 1 µM; first compound 0.0316 µM; stronger effect = lower value
result_type: viability, T/C

Solved cases (5 shown):
Nc1ccn(C2OC(CO)C(O)C2(F)F)c(=O)n1 (stereo unspecified) + Cc1ccccc1N=Nc1ccc(NC(=O)c2ccnn2C)c(C)c1: 28.6%
Nc1ccn(C2OC(CO)C(O)C2(F)F)c(=O)n1 (stereo unspecified) + Cc1cncc(-c2nc(NCCc3c[nH]c4ccccc34)c3ncn(C(C)C)c3n2)c1: 46.1%
COc1cc(C2c3cc4c(cc3C(OC3OC5COC(C)OC5C(O)C3O)C3COC(=O)C23)OCO4)cc(OC)c1O (stereo unspecified) + Cc1cncc(-c2nc(NCCc3c[nH]c4ccccc34)c3ncn(C(C)C)c3n2)c1: 91.4%
Nc1ncn(C2CC(O)C(CO)O2)c(=O)n1 (stereo unspecified) + CC(CO)NC(=O)c1cc(-c2ccc(Cl)cc2)nn(-c2cnn(C)c2)c1=O: 78.8%
O=C(C=Cc1cccc(S(=O)(=O)Nc2ccccc2)c1)NO + Cc1ccccc1N=Nc1ccc(NC(=O)c2ccnn2C)c(C)c1: 76.7%

// next entry
q: Given the compound CC1COCCN1c1cc(-c2ccnn2C)c2ccnc(-c3ccn[nH]3)c2n1 (stereo unspecified) + Cc1cncc(-c2nc(NCCc3c[nH]c4ccccc34)c3ncn(C(C)C)c3n2)c1 , what is its reported viability, T/C?
a: 95.9%
